Data credit: PubChem BioAssay (NCI)

# Tested on: HCT-116 colon
# test: NCI tumour cell line growth inhibition, 48 h
property: TGI

>  <compound>
O=c1c2cc(Br)ccc2n(C2OC(CO)C(O)C(O)C2O)c(=S)n1-c1ccccc1 (centres undefined)

>  <result>
> 100 µM

$$$$

Consider the record given below.
Task: Look at this compound and give its reported TGI. `CCOC(=O)CCCOc1cc(-c2ccccc2F)nc2cc3c(cc12)OCO3`
Output: > 100 µM

* * *

Quick list: TGI per entry.
# Tested on: SK-MEL-28 melanoma
# test: NCI tumour cell line growth inhibition, 48 h

Worked cases, TGI given:
>  <compound>
Cc1c2ccccc2cc2cccc[n+]12

>  <result>
70.5 µM

$$$$
>  <compound>
O=C1Nc2cc(-c3ccc(O)cc3)ccc2/C1=C/c1ccc[nH]1

>  <result>
> 100 µM

$$$$
>  <compound>
C#C[C@@H](OC(=O)c1ccc([N+](=O)[O-])cc1)[C@@H]1C[C@H]2O[C@@H]([C@H](C/C=C/CC)OC(=O)c3ccc([N+](=O)[O-])cc3)C[C@H]2O1

>  <result>
> 100 µM

$$$$
>  <compound>
COc1ccc(/C=C\c2cc(OC)c(OC)c(OC)c2)cc1N/C=C\C(=O)c1c[nH]c2ccccc12

>  <result>
> 100 µM

$$$$
>  <compound>
COc1ccc(OC)c(-c2nc3sc(C)cn3c2/C=C2\C(=O)N(C)c3ccccc32)c1

>  <result>
43.6 µM

$$$$
>  <compound>
CN(CCN1C(=O)c2cccc3cccc(c23)C1=O)CCN1C(=O)c2cccc3cccc(c23)C1=O

>  <result>
> 100 µM

$$$$

Task: Please give the measured TGI for this compound: `[N-]=[N+]=Nc1nnc(CCCCc2nnc(N=[N+]=[N-])o2)o1`
Output: > 100 µM

Task: Request the reported TGI associated with `COc1ccccc1C(=O)Nc1ccc(Cl)c(C(=O)OC(C)C)c1`
Output: > 94.5 µM

Task: Any idea what its TGI is? The compound is C/C(=N\NC(N)=S)C(CN1CCCCC1)C(C1=C(O)c2ccccc2OC1)c1ccccc1 (centres undefined)
Output: > 100 µM

* * *

Listing: TGI of selected molecules
# System: U251 CNS
# test: NCI tumour cell line growth inhibition, 48 h

Task: Query the reported TGI for U251 CNS; item: `CCOC(=O)c1nc2ccc(C(F)(F)F)cc2nc1NCc1ccc(F)cc1`
Output: > 100 µM

Task: Can you look up TGI on U251 CNS for `O=C(O)c1ccc(C2=Nc3cccc4cccc(c34)N2)cc1` ?
Output: > 100 µM

Task: Value wanted: TGI (U251 CNS) of entry `CNc1cc(Cl)ccc1C(=O)N1CCC[C@H]1CO`
Output: > 100 µM

* * *

# Test system: COLO 205 colon
# test: NCI tumour cell line growth inhibition, 48 h; in the data active = GI50 below about 0.43 µM; inactive = the rest
Outcome field: choose from true (active), false (inactive)

Reference set (3 entries):
>  <molecular.string>
COC(=O)[C@]12CC[C@@H](C)[C@H](C)[C@@H]1C1=CC[C@@H]3[C@@]4(C)C(C=O)=C[C@@](C)(COC(=O)c5ccco5)C4=CC[C@@]3(C)[C@]1(C)CC2

>  <class.name>
true

$$$$
>  <molecular.string>
Cc1ccc(Nn2c(SCC(=O)Nc3nc(-c4ccccc4)cs3)nc(C)c2C)cc1

>  <class.name>
false

$$$$
>  <molecular.string>
COc1ccc(-c2cncn2-c2ccc(-c3nc4cc(OC)c(OC)c(OC)c4s3)cc2)cc1N

>  <class.name>
false

$$$$

Task: For this compound, state the assay outcome: `Nc1nc(N)c2cc(S(=O)(=O)c3ccccc3)ccc2n1`
Output: false

* * *

# System: SF-295 CNS
# test: NCI tumour cell line growth inhibition, 48 h; in the data active = GI50 below about 0.43 µM; inactive = the rest
// classify into 1 for active, -1 for inactive

Solved cases (3 shown):
>  <molecule>
COC(=O)[C@]12CC[C@@H](C)[C@H](C)[C@@H]1C1=CC[C@@H]3[C@@]4(C)C(C=O)=C[C@@](C)(COC(=O)c5ccco5)C4=CC[C@@]3(C)[C@]1(C)CC2

>  <class.name>
-1

$$$$
>  <molecule>
NC(N)=N/N=C/c1c(-c2cccs2)nc2n1CCS2

>  <class.name>
-1

$$$$
>  <molecule>
O=CCC(O)C(O)C(O)CO (centres undefined)

>  <class.name>
-1

$$$$

Task: Please state the recorded outcome for this molecule: `C=CC(=O)OCCCS(=O)(=O)[O-].C=CC(=O)OCCCS(=O)(=O)[O-].NC1CCCCC1N.[Pt+4]`
Output: -1

* * *

# System: SNB-75 CNS
# test: NCI tumour cell line growth inhibition, 48 h
property: TGI

Guide cases for TGI, answers given:
>  <compound>
COc1ccc(C#CC2=C(Br)C(=O)OC2)cc1

>  <property>
TGI

>  <result>
16.6 µM

$$$$
>  <compound>
CCOC(=O)c1nc2ccc(C(F)(F)F)cc2nc1NCc1ccc(F)cc1

>  <property>
TGI

>  <result>
> 100 µM

$$$$
>  <compound>
COc1ccccc1C(=O)Nc1ccc(Cl)c(C(=O)OC(C)C)c1

>  <property>
TGI

>  <result>
> 100 µM

$$$$
>  <compound>
Cn1c(=S)c2[nH]c(SCc3cccnc3)nc2n(C)c1=O

>  <property>
TGI

>  <result>
> 100 µM

$$$$
>  <compound>
CC(C)CCCC(C)[C@H]1CCC2C3CC=C4C[C@@H](OC(=O)CC(CC(=O)[O-])C(=O)[O-])CC[C@]4(C)C3CC[C@@]21C.N.N.[Pt+4] (some centres not stated)

>  <property>
TGI

>  <result>
> 100 µM

$$$$
>  <compound>
O=C(O)c1ccc(C2=Nc3cccc4cccc(c34)N2)cc1

>  <property>
TGI

>  <result>
> 100 µM

$$$$
>  <compound>
CCOC(=O)/C=C(\C(=O)OCC)n1cc(C)c(=O)n(Cc2cn(COCCOC(C)=O)nn2)c1=O

>  <property>
TGI

>  <result>
36 µM

$$$$
>  <compound>
O=C1c2ccccc2-c2c1c1ccc3ccccc3c1n2-c1ccccc1

>  <property>
TGI

>  <result>
> 100 µM

$$$$

Task: Find the recorded TGI belonging to `CC(C)(C)[Si](C)(C)O/N=C\c1cccc(O[Si](C)(C)C(C)(C)C)c1` and report it.
Output: 31.8 µM

Task: // query TGI value for entry O=C(c1nc2ccc(Cl)cc2[nH]c1=O)C(O)c1cccc([N+](=O)[O-])c1 (configuration not stated)
Output: > 100 µM

Task: # query: TGI of entry `O=C(/C=C/c1ccco1)N1CCN(Cc2ccccc2)CC1`
Output: > 100 µM

* * *

Below, each entry is listed with its recorded TGI.
# Test system: MDA-N
# test: NCI tumour cell line growth inhibition, 48 h

>  <molecule>
CCCCCCCCCCCCCCCCCCOC(COP(=O)(O)OCC1OC(n2cc(F)c(=O)[nH]c2=O)CC1O)COP(=O)(O)OCC1OC(n2ccc(N)nc2=O)C(O)C1O (stereo unspecified)

>  <result>
> 100 µM

$$$$

Task: Requested read-out TGI, target or system MDA-N, entry `C=CCc1cccc(/C(O)=C/C(=O)/C=C/c2ccccc2Cl)c1O`
Output: > 100 µM

Task: Please provide the recorded TGI for `O=c1[nH]nc(Cc2ccc(Cl)cc2)n1CCO` , tested on MDA-N.
Output: > 100 µM

Task: Report TGI for C/C(=N\NC(N)=S)C(CN1CCCCC1)C(C1=C(O)c2ccccc2OC1)c1ccccc1 (stereo unspecified) tested on MDA-N.
Output: > 100 µM

Task: Item: `CC(=S)NC=C(C(N)=O)C(N)=O` Test system: MDA-N Read-out: TGI Value: ?
Output: > 100 µM

Task: Item: CN1C(CC(O)c2ccccc2)CCCC1CC(O)(c1ccccc1)c1ccccc1 (stereo unspecified) Test system: MDA-N Read-out: TGI Value: ?
Output: 33.5 µM

Task: Lab note: need TGI with MDA-N for entry `CCCCCCCCCc1cc(=O)c2c(O)cc(O)cc2o1` , please look it up.
Output: > 100 µM

Task: Any idea what TGI came out for COC(=O)C1OC(SCCN)C(O)C(O)C1O (stereo unspecified) on MDA-N?
Output: > 100 µM

* * *

TGI for assorted compounds
# Tested on: HT29 colon
# test: NCI tumour cell line growth inhibition, 48 h
Dear colleague, please return just the value in µM, with no unit written.

// solved cases for TGI follow
>  <compound>
Nc1n[nH]c2cc(F)c([C@@H]3Nc4c(F)cc5[nH]ncc5c4[C@H]4C5CCC(C5)[C@@H]34)cc12 (some centres undefined)

>  <assayed.system>
HT29 colon

>  <TGI [µM]>
5.39

$$$$
>  <compound>
COC(=O)[C@]12CC[C@@H](C)[C@H](C)[C@@H]1C1=CC[C@@H]3[C@@]4(C)C(C=O)=C[C@@](C)(COC(=O)c5ccco5)C4=CC[C@@]3(C)[C@]1(C)CC2

>  <assayed.system>
HT29 colon

>  <TGI [µM]>
9.47

$$$$
>  <compound>
CCCCc1n(Cc2ccc3ccccc3n2)cc[n+]1Cc1ccc2ccccc2c1

>  <assayed.system>
HT29 colon

>  <TGI [µM]>
2.85

$$$$

As a next step, examine the compound that follows.
Task: For the compound shown here, `COc1ccccc1C(=O)Nc1ccc(Cl)c(C(=O)OC(C)C)c1` , give the reported TGI.
Output: 88.2
